B1: library; a variant is named by its letters at X, in order (parent)
chain: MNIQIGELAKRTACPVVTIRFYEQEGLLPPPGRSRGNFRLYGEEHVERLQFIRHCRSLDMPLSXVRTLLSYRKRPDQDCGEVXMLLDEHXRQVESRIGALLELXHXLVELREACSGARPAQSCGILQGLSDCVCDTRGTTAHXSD

- Variants of: B1
- Protocol summary: sfGFP reporter fluorescence (15 h) (µM FITC); higher = higher leak
- Condition notes: library round: Round 3b; ligand: none
Returns one of yes or no; yes when sfGFP reporter fluorescence is >= 0.05.

[
  {
    "Ordered residues": "MNIQIGELAKRTACPVVTIRFYEQEGLLPPPGRSRGNFRLYGEEHVERLQFIRHCRSLDMPLSKVRTLLSYRKRPDQDCGEVFMLLDEHIRQVESRIGALLELKHALVELREACSGARPAQSCGILQGLSDCVCDTRGTTAHTSD [KFIKAT]",
    "Assigned label": "no"
  },
  {
    "Ordered residues": "MNIQIGELAKRTACPVVTIRFYEQEGLLPPPGRSRGNFRLYGEEHVERLQFIRHCRSLDMPLSKVRTLLSYRKRPDQDCGEVIMLLDEHARQVESRIGALLELVHALVELREACSGARPAQSCGILQGLSDCVCDTRGTTAHTSD [KIAVAT]",
    "Assigned label": "yes"
  },
  {
    "Ordered residues": "MNIQIGELAKRTACPVVTIRFYEQEGLLPPPGRSRGNFRLYGEEHVERLQFIRHCRSLDMPLSKVRTLLSYRKRPDQDCGEVFMLLDEHIRQVESRIGALLELKHELVELREACSGARPAQSCGILQGLSDCVCDTRGTTAHTSD [KFIKET]",
    "Assigned label": "no"
  },
  {
    "Ordered residues": "MNIQIGELAKRTACPVVTIRFYEQEGLLPPPGRSRGNFRLYGEEHVERLQFIRHCRSLDMPLSKVRTLLSYRKRPDQDCGEVNMLLDEHIRQVESRIGALLELTHELVELREACSGARPAQSCGILQGLSDCVCDTRGTTAHTSD [KNITET]",
    "Assigned label": "yes"
  },
  {
    "Ordered residues": "MNIQIGELAKRTACPVVTIRFYEQEGLLPPPGRSRGNFRLYGEEHVERLQFIRHCRSLDMPLSKVRTLLSYRKRPDQDCGEVIMLLDEHIRQVESRIGALLELVHELVELREACSGARPAQSCGILQGLSDCVCDTRGTTAHPSD [KIIVEP]",
    "Assigned label": "yes"
  },
  {
    "Ordered residues": "MNIQIGELAKRTACPVVTIRFYEQEGLLPPPGRSRGNFRLYGEEHVERLQFIRHCRSLDMPLSDVRTLLSYRKRPDQDCGEVFMLLDEHARQVESRIGALLELVHHLVELREACSGARPAQSCGILQGLSDCVCDTRGTTAHTSD [DFAVHT]",
    "Assigned label": "no"
  },
  {
    "Ordered residues": "MNIQIGELAKRTACPVVTIRFYEQEGLLPPPGRSRGNFRLYGEEHVERLQFIRHCRSLDMPLSKVRTLLSYRKRPDQDCGEVNMLLDEHIRQVESRIGALLELTHELVELREACSGARPAQSCGILQGLSDCVCDTRGTTAHRSD [KNITER]",
    "Assigned label": "yes"
  },
  {
    "Ordered residues": "MNIQIGELAKRTACPVVTIRFYEQEGLLPPPGRSRGNFRLYGEEHVERLQFIRHCRSLDMPLSDVRTLLSYRKRPDQDCGEVIMLLDEHARQVESRIGALLELVHALVELREACSGARPAQSCGILQGLSDCVCDTRGTTAHPSD [DIAVAP]",
    "Assigned label": "no"
  },
  {
    "Ordered residues": "MNIQIGELAKRTACPVVTIRFYEQEGLLPPPGRSRGNFRLYGEEHVERLQFIRHCRSLDMPLSDVRTLLSYRKRPDQDCGEVIMLLDEHIRQVESRIGALLELVHELVELREACSGARPAQSCGILQGLSDCVCDTRGTTAHRSD [DIIVER]",
    "Assigned label": "no"
  },
  {
    "Ordered residues": "MNIQIGELAKRTACPVVTIRFYEQEGLLPPPGRSRGNFRLYGEEHVERLQFIRHCRSLDMPLSDVRTLLSYRKRPDQDCGEVFMLLDEHIRQVESRIGALLELVHALVELREACSGARPAQSCGILQGLSDCVCDTRGTTAHTSD [DFIVAT]",
    "Assigned label": "no"
  },
  {
    "Ordered residues": "MNIQIGELAKRTACPVVTIRFYEQEGLLPPPGRSRGNFRLYGEEHVERLQFIRHCRSLDMPLSKVRTLLSYRKRPDQDCGEVIMLLDEHIRQVESRIGALLELKHELVELREACSGARPAQSCGILQGLSDCVCDTRGTTAHRSD [KIIKER]",
    "Assigned label": "no"
  },
  {
    "Ordered residues": "MNIQIGELAKRTACPVVTIRFYEQEGLLPPPGRSRGNFRLYGEEHVERLQFIRHCRSLDMPLSKVRTLLSYRKRPDQDCGEVFMLLDEHARQVESRIGALLELKHALVELREACSGARPAQSCGILQGLSDCVCDTRGTTAHPSD [KFAKAP]",
    "Assigned label": "yes"
  },
  {
    "Ordered residues": "MNIQIGELAKRTACPVVTIRFYEQEGLLPPPGRSRGNFRLYGEEHVERLQFIRHCRSLDMPLSDVRTLLSYRKRPDQDCGEVIMLLDEHARQVESRIGALLELKHALVELREACSGARPAQSCGILQGLSDCVCDTRGTTAHRSD [DIAKAR]",
    "Assigned label": "no"
  }
]
